test: In vitro metabolic stability in CES1−/− mouse liver homogenate; format: in vitro ADME; conditions: C57BL/6, mouse, CES1−/− mouse liver homogenate
test-readout: remaining at 1 h, 10 μM

# example entries with known answers
compound | result
COc1cc(-c2nc(-c3ccccc3)c(-c3cccs3)[nH]2)cc(OC)c1OC(C)=O | < 25%
CCCCCC(=O)Oc1c(OC)cc(-c2nc(-c3ccccc3)c(-c3cccs3)[nH]2)cc1OC [Compound P2] | < 25%
COc1cc(-c2nc(-c3ccccc3)c(-c3cccs3)[nH]2)cc(OC)c1OC(=O)C(C)(C)C | < 25%
CCC1CCCC(CC)N1C(=O)Oc1c(OC)cc(-c2nc(-c3ccccc3)c(-c3cccs3)[nH]2)cc1OC (stereo not shown) | > 50%
COc1cc(-c2nc(-c3ccccc3)c(-c3cccs3)[nH]2)cc(OC)c1OC(=O)OC(OC(=O)C(C)(C)C)c1ccccc1 (stereo not shown) | > 75%

Qu. Requested read-out: remaining at 1 h, 10 μM. Entry: COc1cc(-c2nc(-c3ccccc3)c(-c3cccs3)[nH]2)cc(OC)c1OCOP(=O)(O)O
Ans. < 25%

Qu. Requested read-out: remaining at 1 h, 10 μM. Entry: COc1cc(-c2nc(-c3ccccc3)c(-c3cccs3)[nH]2)cc(OC)c1OCOP(=O)(O)OCOC(=O)OC(C)C
Ans. < 25%

Values compiled from paper PMC9980655.
